Data origin: ChEMBL document CHEMBL4011650

# System: HT-29
# assay: Antiproliferative activity against human HT-29 cells assessed as cell viability at 300 uM after 72 hrs under hypoxic conditions by MTT assay relative to control
# Format: functional
# recordedConditions: HT-29, 72 h, read-out: Activity
The entries below are paired with their reported viability at 300 µM.
Your answer is read as %, so omit the unit and give the number.

Examples from the recorded data:
compound	experimentalEndpoint	result
O=c1[nH]c2cc(Cl)c(Cl)cc2c(=O)n1O	viability at 300 µM	24.5
O=C1C=CCN1c1cc2c(=O)n(O)c(=O)[nH]c2cc1Cl	viability at 300 µM	65.2
CC(=O)Nc1nnc(S(N)(=O)=O)s1 [ACETAZOLAMIDE]	viability at 300 µM	84.1

Moving on to the next compound.
-- ask Need viability at 300 µM of O=C(NCc1ccccc1)Nc1ccc2[nH]c(=O)n(O)c(=O)c2c1 , thanks.
-- reply 59.9
